Test: Tolerability in CD1 mice: body weight and organ weight (Example 43)
Format: in vivo
Conditions: 50 mg/kg s.c. twice per week for 6 weeks, end of study
Strand notation (5' to 3'): a small letter for the sugar, then the base; units joined by * are phosphorothioate-linked, units joined directly phosphodiester-linked; [ ] holds rarer units or linkages, { } end groups; capitals alone tell only the bases. e = 2'-O-(2-methoxyethyl) (MOE); [5mC] = 5-methylcytosine; d = 2'-deoxy (DNA)
Outcome measure: Change in Kidney weight (%)
// units = %; emit number, no label

# input Please give the measured Change in Kidney weight for this substance: ISIS 449709: 3-8-3, 4-8-4, 2-10-2, 3-10-3 or 4-10-4 MOE microwalk gapmer (Table 46) (antisense eG*e[5mC]*eA*e[5mC]*dA*dG*dT*dT*dT*d[5mC]*dT*dG*dG*d[5mC]*eA*eG*eG*e[5mC])
# output −14

# input Record request: Change in Kidney weight value, item ISIS 449707: 3-8-3, 4-8-4, 2-10-2, 3-10-3 or 4-10-4 MOE microwalk gapmer (Table 46) (antisense e[5mC]*eA*e[5mC]*eA*dG*dT*dT*dT*d[5mC]*dT*dG*dG*e[5mC]*eA*eG*eG)
# output −5

====

Record form. Attribute: monocytes. Fill in for each entry.
Test: Hematology assays in cynomolgus monkeys (Example 45)
Format: in vivo
Conditions: day 22

# input monocytes lookup needed for ISIS 417002: MOE gapmer, nucleobases 1275 to 1318 of SEQ ID NO: 1 (Table 8) (antisense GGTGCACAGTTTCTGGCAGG; MOE gapmer, wing and gap sizes not given here) , thanks.
# output 3.1%

# input Recorded monocytes of ISIS 416850: MOE gapmer, nucleobases 1275 to 1318 of SEQ ID NO: 1 (Table 8) (antisense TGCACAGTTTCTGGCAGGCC; MOE gapmer, wing and gap sizes not given here) , please.
# output 2.4%

# input What value of monocytes has been reported for the following substance? ISIS 416858: MOE gapmer, nucleobases 1275 to 1318 of SEQ ID NO: 1 (Table 8) (antisense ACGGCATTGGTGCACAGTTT; MOE gapmer, wing and gap sizes not given here)
# output 2.8%

# input Need monocytes, item ISIS 416864: MOE gapmer, nucleobases 1275 to 1318 of SEQ ID NO: 1 (Table 8) (antisense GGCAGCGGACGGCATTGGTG; MOE gapmer, wing and gap sizes not given here)
# output 2.8%

# input Reported monocytes for ISIS 416838: MOE gapmer, nucleobases 1018 to 1042 of SEQ ID NO: 1 (Table 6) (antisense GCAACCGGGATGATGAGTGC; MOE gapmer, wing and gap sizes not given here) : what is it?
# output 2.9%

====

Experiment: Hematology assays in cynomolgus monkeys (Example 46)
Assay type: in vivo
Conditions: Day 55
Strand notation (5' to 3'): a small letter for the sugar, then the base; units joined by * are phosphorothioate-linked, units joined directly phosphodiester-linked; [ ] holds rarer units or linkages, { } end groups; capitals alone tell only the bases. e = 2'-O-(2-methoxyethyl) (MOE); [5mC] = 5-methylcytosine; d = 2'-deoxy (DNA)
Outcome measure: neutrophils (%)
Field: numeric (%). Do not append units.

# input What neutrophils value was documented for this substance, ISIS 449707: 3-8-3, 4-8-4, 2-10-2, 3-10-3 or 4-10-4 MOE microwalk gapmer (Table 46) (antisense e[5mC]*eA*e[5mC]*eA*dG*dT*dT*dT*d[5mC]*dT*dG*dG*e[5mC]*eA*eG*eG) ?
# output 98

# input neutrophils for ISIS 449710: 3-8-3, 4-8-4, 2-10-2, 3-10-3 or 4-10-4 MOE microwalk gapmer (Table 46) (antisense e[5mC]*eA*e[5mC]*dA*dG*dT*dT*dT*d[5mC]*dT*dG*dG*d[5mC]*eA*eG*eG) ?
# output 132
